- assay_protocol: Drug level in HIV-infected Thai pregnant women serum at 400 mg, po bid initiated intrapartum administered for 30 days in combination with 100 mg, po bid ritonavir measured before administering last dose
- Type: ADME, organism-based
- assay_conditions: female, human, read-out: Drug uptake
recorded_endpoint: concentration at 720 h (ng/mL)
I only need the number, in ng/mL, no unit after it.

Input: Which concentration at 720 h is listed for Cc1cccc(C)c1OCC(=O)N[C@@H](Cc1ccccc1)[C@@H](O)C[C@H](Cc1ccccc1)NC(=O)[C@H](C(C)C)N1CCCNC1=O [LOPINAVIR] ?
Output: 9170

* * *

- Test system: Serum
- assay_protocol: Ratio of drug level before intrapartum initiation to 30 days pre-last dose of HIV-infected Thai pregnant women serum at 400 mg, po bid in combination with 100 mg, po bid ritonavir
- Format: ADME, organism-based
- assay_conditions: human, in vivo, 720 h
recorded_endpoint: Drug uptake
Write the value as a bare number.

Input: Which Drug uptake is listed for Cc1cccc(C)c1OCC(=O)N[C@@H](Cc1ccccc1)[C@@H](O)C[C@H](Cc1ccccc1)NC(=O)[C@H](C(C)C)N1CCCNC1=O ?
Output: 0.66
